- Measured target: MLLT1 (Homo sapiens, UniProt Q03111)
- Construct: endogenous in cells; host or cells: MV4-11 (ATCC CRL-9591)
- Sequence (Q03111 1-559): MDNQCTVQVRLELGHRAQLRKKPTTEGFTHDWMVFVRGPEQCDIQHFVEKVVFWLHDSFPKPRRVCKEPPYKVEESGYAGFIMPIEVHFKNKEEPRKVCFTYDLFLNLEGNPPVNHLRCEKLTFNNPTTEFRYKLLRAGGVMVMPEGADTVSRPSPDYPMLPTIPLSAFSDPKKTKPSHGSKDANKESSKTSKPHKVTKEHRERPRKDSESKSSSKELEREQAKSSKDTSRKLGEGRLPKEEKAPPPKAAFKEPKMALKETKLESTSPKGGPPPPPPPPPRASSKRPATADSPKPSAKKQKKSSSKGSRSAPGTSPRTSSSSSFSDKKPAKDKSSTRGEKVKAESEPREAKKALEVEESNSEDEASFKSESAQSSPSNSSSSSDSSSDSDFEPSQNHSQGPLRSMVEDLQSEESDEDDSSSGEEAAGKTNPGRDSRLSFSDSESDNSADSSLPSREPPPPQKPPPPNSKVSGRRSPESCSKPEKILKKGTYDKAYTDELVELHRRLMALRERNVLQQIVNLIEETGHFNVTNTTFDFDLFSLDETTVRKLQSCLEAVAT
- Protocol summary: MLLT1 degradation assay (JESS automated chemiluminescent detection) in MV4-11 cells
- Type: cell-based
- Condition details: 0.01 µM, 24h, with respect to DMSO control
Quantity kind: inhibition at 0.01 µM

[[record]]
compound = "Cc1nn(C2CCC(CCCC#Cc3cccc4c3CN(C3CCC(=O)NC3=O)C4=O)CC2)c2cc(C(=O)Nc3cc4[nH]c([C@H]5CCCN5C)cc4cn3)ccc12 (stereo partly drawn)"
measured_target = "MLLT1 (Homo sapiens, UniProt Q03111)"
endpoint_value = "50 to 75%"

[[record]]
compound = "Cc1nn(CC#Cc2cccc3c2CN(C2CCC(=O)NC2=O)C3=O)c2cc(C(=O)Nc3cc4[nH]c([C@H]5CCCN5C)cc4cn3)ccc12 (stereo partly drawn)"
measured_target = "MLLT1 (Homo sapiens, UniProt Q03111)"
endpoint_value = "≥ 75%"

[[record]]
compound = "[2H]C([2H])([2H])N1CCC[C@@H]1c1cc2cnc(NC(=O)c3ccc4c(C)nn(CCCCCCCC#Cc5cccc6c5CN(C5CCC(=O)NC5=O)C6=O)c4c3)cc2[nH]1 (stereo partly drawn)"
measured_target = "MLLT1 (Homo sapiens, UniProt Q03111)"
endpoint_value = "50 to 75%"

[[record]]
compound = "Cc1nn(CCCCC#Cc2cccc3c2CN(C2CCC(=O)NC2=O)C3=O)c2cc(C(=O)Nc3cc4[nH]c([C@H]5CCCN5C)cc4cn3)ccc12 (stereo partly drawn)"
measured_target = "MLLT1 (Homo sapiens, UniProt Q03111)"
endpoint_value = "≥ 75%"

[[record]]
compound = "Cc1nn(C2CCN(CC3CCN(c4cc5c(cc4F)C(=O)N(C4CCC(=O)NC4=O)C5=O)CC3)CC2)c2cc(C(=O)Nc3cc4[nH]c([C@H]5CCCN5C)cc4cn3)ccc12 (stereo partly drawn)"
measured_target = "MLLT1 (Homo sapiens, UniProt Q03111)"
endpoint_value = "≥ 75%"


Turning now to a further record.
Q. Identify measured inhibition at 0.01 µM obtained with MLLT1 (Homo sapiens, UniProt Q03111) for Cc1nn(CCCCCC#Cc2cccc(C(=O)NC3CCC(=O)NC3=O)c2F)c2cc(C(=O)Nc3cc4[nH]c([C@H]5CCCN5C)cc4cn3)ccc12 (stereo partly drawn) .
A. < 25%

Cited source for all entries: patent EP4667466A1
